Source: patent US20240101716A1

Biological target: T1, recombinant human PD-L1 His protein (human, UniProt Q9NZQ7 19-239)
T1 construct: not shown: His tag
T1 sequence (Q9NZQ7 19-239 limits assumed): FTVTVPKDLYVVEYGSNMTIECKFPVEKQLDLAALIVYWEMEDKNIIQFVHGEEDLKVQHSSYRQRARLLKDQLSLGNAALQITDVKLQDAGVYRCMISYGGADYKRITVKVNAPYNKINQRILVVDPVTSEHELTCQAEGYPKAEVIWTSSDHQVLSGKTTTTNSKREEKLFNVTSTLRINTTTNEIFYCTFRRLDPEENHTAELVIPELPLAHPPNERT
Test: SPR Biacore T200, PD-L1 His on chip, sdAb analyte
measurementType: kon (M⁻¹ s⁻¹)
Report as a plain number; the unit M⁻¹ s⁻¹ is understood.

{"columns": ["binder", "kon, M⁻¹ s⁻¹"],
 "data": [
  ["AS06617 sdAb (VHH, His6-tagged llama sdAb) VHH: DVQLVESGGGLVQAGDSLRLSCAASGRTFISYAVGWFRQAPGSEREFVAGIRWNGIHTDYADSVKGRFTISRDNAKNTVTLEMTSLKPEDTAVYYCAAHRTIATIPEKYEYEYWGQGTQVTVSS", "1.86e+06"],
  ["AS06703 sdAb (VHH, His6-tagged llama sdAb) VHH: EVQLVESGGGLVRAGGSLRLSCAASGRTFITYAIGWFRQAPGKEREFVTAINWSGSMTSYADSVKGRFTISRDNNKNTVYLQMNSLKPEDTALYYCAAHLGAIAPMSQSVYDYWGQGTQVTVSS", "1.8e+06"],
  ["AS06750 sdAb (VHH, His6-tagged llama sdAb) VHH: AVQLVESGGGLVQAGDSLRLSCTASGRTFLTYAVGWFRQAPGTEREFVAGIRWSGGYTDYADSVKGRFTISRDNAKNTVYLQMNSLKPEDTAVYYCAAHRTIATIPEKYEYEYWGQGTQVTVSS", "2.05e+06"]
]}

Name the recorded kon for AS06686 sdAb (VHH, His6-tagged llama sdAb) VHH: AVQLVESGGGLVQAGDSLRLACAASGRTFLTYALGWFRQAPGKEREFVAGVSWSGSSTKYADSVKGRFTISRDNAKNTVYMQMNSLKPEDTAVYYCAAQISAIVPISAHEYQYWGQGTQVTVSS .
2.79e+06
